src = patent US4298739A

# Assay Details: Concentration in blood of male beagle dogs
# Format: in vivo
# Stated Conditions: dog, plasma, 30 mg/kg, 30 mg/kg water suspension, 8 hr.
# Experimental: A water suspension of test compound was administered at the dose of 30 mg/kg to the overnight fasted male Wister rats and male beagle dogs, and after a predetermined period of time, blood was collected from said animals to obtain plasma. 2 to 3 Milliliters of 0.1 N-NaOH and 2 ml of CHCl3 were added to 1 ml of the obtained plasma, and the mixture was shaken and extracted in a shaker for 2 hours, and after centrifugal separation, the organic layer was washed with 2 ml of 0.1 N-HCl. […]
Some molecules, each annotated with its measured concentration at 8 h.
Test Readout: concentration at 8 h (ng/mL)

>>> result_value("CCN(C(=O)CCCOc1ccc2[nH]c(=O)ccc2c1)c1ccccc1 [compound 20]")
50
>>> result_value("CC1CCCCC1N(C)C(=O)CCCOc1ccc2[nH]c(=O)ccc2c1 (stereo not shown) [compound 1]")
80
>>> result_value("O=C1CCc2cc(OCCCC(=O)N(C3CCCCC3)C3CCCCC3)ccc2N1 [compound 18]")
130
>>> result_value("CN(C(=O)CCCOc1cccc2c1CCC(=O)N2)C1CCCCC1 [compound 23]")
50
